# credit: patent US11091471B2

Molecular target: h-GABA-A α5β3γ2 (Homo sapiens (Human), UniProt P18507+P31644)
Sequence (P31644 32-462): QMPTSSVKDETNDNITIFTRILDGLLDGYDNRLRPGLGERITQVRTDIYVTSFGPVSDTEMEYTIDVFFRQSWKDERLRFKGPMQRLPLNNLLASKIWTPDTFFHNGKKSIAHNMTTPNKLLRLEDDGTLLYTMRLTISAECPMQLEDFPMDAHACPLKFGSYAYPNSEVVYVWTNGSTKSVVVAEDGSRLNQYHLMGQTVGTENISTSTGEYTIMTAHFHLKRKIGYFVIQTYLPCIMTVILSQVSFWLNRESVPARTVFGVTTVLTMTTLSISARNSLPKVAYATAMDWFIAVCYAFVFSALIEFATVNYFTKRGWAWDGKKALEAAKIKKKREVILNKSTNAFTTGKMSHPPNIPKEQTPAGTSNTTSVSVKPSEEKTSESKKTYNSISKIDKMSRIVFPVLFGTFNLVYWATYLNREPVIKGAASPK
Sequence (P28472 26-473 partner): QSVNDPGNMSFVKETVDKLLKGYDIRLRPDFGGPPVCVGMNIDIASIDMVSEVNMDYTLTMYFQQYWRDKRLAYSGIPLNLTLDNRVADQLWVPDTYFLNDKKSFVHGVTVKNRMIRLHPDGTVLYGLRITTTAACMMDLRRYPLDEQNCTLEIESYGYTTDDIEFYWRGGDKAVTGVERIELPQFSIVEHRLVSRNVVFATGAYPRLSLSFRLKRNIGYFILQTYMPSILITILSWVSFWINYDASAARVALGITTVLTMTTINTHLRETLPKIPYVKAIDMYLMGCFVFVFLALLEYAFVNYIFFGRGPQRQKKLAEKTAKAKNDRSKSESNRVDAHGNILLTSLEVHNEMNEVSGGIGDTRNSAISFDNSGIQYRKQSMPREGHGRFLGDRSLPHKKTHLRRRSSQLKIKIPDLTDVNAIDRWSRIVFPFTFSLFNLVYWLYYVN
Sequence (P18507 40-475): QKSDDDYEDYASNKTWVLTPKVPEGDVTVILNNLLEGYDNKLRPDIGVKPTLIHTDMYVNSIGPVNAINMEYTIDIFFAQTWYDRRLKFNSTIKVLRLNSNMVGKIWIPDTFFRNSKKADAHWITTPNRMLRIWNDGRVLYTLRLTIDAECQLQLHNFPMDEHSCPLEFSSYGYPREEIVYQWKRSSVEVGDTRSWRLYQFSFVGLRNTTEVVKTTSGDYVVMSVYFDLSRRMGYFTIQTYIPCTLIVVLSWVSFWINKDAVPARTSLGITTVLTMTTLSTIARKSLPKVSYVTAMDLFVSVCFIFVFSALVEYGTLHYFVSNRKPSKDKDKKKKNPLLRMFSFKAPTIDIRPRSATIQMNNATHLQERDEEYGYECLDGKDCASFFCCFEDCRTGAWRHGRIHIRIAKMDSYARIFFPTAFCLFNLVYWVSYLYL
Assay: Two-electrode voltage clamp electrophysiology in Xenopus oocytes expressing GABAA receptors, modulation of GABA EC20 current
Type: cell-based
Conditions: Table 2; reference compounds, % modulation of GABA EC20
property_measured: Efficacy (GABA) % (%)
Please give a number only; it is taken to be in %.

Illustrative cases are given below, each with its answer.
Cc1onc(-c2ccc(Cl)cn2)c1COc1ccc(C(=O)NC2CCOCC2)cn1 [RO-301, reference compound]	−18
Cc1onc(-c2cccnc2)c1COc1ccc(C(=O)NC2CCOCC2)cn1 [RO-159, reference compound]	−12
Cc1onc(-c2ccccn2)c1COc1ccc(C(=O)NC2CCOCC2)nn1 [RO-094, reference compound]	−18
Cc1onc(-c2cccnc2)c1COc1ccc(C(=O)NC2CCOCC2)nn1 [RE-A, reference compound]	−3
Cc1ccc(-c2noc(C)c2COc2ccc(C(=O)NC3CCOCC3)cn2)cc1 [RO-251, reference compound]	−18

Fill in the blank: the reported Efficacy (GABA) % of Cc1onc(-c2ccccn2)c1COc1ccc(C(=O)NC2CCOCC2)cn1 [RO-272, reference compound] is ____.
−32

----------
Target: h-GABA-A α5β3γ2 (Homo sapiens (Human), UniProt P18507+P31644)
Assay: Two-electrode voltage clamp electrophysiology in Xenopus oocytes expressing GABAA receptors, modulation of GABA EC20 current
Assay type: cell-based
Details: Table 1; GABA at EC20, test compound at approx. 30 fold its Ki, Xenopus oocytes
property_measured: Fold increase h-GABA-A α5β3γ2 oocyte

Illustrative cases are given below, each with its answer.
O=C(N[C@H]1CCOC1)c1ccc(OCc2c(-c3ccc(Cl)nc3)noc2C2CC2)nn1 [Example 179]	1.82
Cc1ccc(-c2noc(C)c2COc2ccc(C(=O)N3C[C@@H]4C[C@H]3CO4)nn2)cn1 [Example 151]	1.68

Fill in the blank: the reported Fold increase h-GABA-A α5β3γ2 oocyte of Cc1ccc(-c2noc(C)c2COc2cc3c(cn2)C(=O)N(C2CCS(=O)(=O)CC2)C3)cn1 [Example 91] is ____.
2.4

Fill in the blank: the reported Fold increase h-GABA-A α5β3γ2 oocyte of Cc1ncc(-c2noc(C)c2COc2ccc(C(=O)NC3CCOCC3)cn2)cc1F [Example 143] is ____.
1.2

Fill in the blank: the reported Fold increase h-GABA-A α5β3γ2 oocyte of Cc1ccc(-c2noc(C)c2COc2cc3c(cn2)C(=O)N(C)C3)cn1 [Example 10] is ____.
1.8

Fill in the blank: the reported Fold increase h-GABA-A α5β3γ2 oocyte of Cc1ccc(-c2noc(C)c2COc2ccc(C(=O)N3CCC(F)(F)CC3)nn2)cn1 [Example 53] is ____.
1.8

Fill in the blank: the reported Fold increase h-GABA-A α5β3γ2 oocyte of Cc1ccc(-c2noc(C)c2COc2ccc(C(=O)NC3CC3)nn2)cn1 [Example 26] is ____.
1.8

Fill in the blank: the reported Fold increase h-GABA-A α5β3γ2 oocyte of Cc1ccc(-c2noc(C)c2COc2ccc(C(=O)N[C@H]3CCOC[C@@H]3O)cn2)cn1 [Example 127] is ____.
1.5
